Target: Tyk2 (Homo sapiens, UniProt P29597)
Sequence (P29597 whole entry): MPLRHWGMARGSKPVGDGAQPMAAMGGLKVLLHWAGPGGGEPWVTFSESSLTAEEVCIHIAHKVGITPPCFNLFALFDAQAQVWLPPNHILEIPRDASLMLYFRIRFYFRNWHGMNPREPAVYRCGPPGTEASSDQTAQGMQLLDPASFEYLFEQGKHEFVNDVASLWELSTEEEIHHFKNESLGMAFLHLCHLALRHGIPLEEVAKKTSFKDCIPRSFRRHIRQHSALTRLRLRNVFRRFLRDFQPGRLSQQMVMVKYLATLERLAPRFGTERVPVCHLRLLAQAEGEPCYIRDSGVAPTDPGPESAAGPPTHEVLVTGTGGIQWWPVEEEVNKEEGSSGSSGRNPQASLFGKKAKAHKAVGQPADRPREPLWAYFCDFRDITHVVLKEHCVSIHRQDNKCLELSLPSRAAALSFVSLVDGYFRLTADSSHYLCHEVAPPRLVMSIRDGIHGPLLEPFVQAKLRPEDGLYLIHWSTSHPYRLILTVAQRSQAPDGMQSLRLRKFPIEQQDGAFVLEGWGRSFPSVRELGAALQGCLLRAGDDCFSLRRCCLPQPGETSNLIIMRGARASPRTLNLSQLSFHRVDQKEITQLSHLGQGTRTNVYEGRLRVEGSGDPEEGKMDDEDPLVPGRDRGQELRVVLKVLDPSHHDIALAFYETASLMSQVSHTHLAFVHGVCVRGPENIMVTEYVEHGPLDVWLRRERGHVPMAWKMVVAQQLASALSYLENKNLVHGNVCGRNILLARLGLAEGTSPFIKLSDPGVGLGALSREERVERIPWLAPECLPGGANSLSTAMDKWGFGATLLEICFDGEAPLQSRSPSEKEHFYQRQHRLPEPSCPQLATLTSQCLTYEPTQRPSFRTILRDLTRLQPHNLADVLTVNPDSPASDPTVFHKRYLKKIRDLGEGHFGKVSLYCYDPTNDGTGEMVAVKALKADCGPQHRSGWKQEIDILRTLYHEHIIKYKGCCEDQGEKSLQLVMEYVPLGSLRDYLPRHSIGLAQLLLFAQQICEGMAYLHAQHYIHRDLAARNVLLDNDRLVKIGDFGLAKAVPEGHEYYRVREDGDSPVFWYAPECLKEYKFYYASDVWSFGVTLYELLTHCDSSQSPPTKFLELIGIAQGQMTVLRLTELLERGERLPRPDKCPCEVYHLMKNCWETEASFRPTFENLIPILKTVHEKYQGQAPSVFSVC
Test: JAK kinase inhibition assay (EZ Reader, peptide substrate phosphorylation) - Tyk2
Type: biochemical
Settings: Tyk2 kinase 1 nM; 8 concentration points, max 10 μM
measured-attribute: IC50

Worked examples, 4 compounds total:
Cn1cc(Nc2nccc(-c3ccc(NC(=O)[C@@H]4CC4(F)F)cc3)n2)cn1    < 0.1 µM
Cn1cc(Nc2nccc(-c3ccc(NC(=O)CC#N)c4cc[nH]c34)n2)cn1    ≥ 10 µM
Cc1cc(-c2ccnc(Nc3cnn(C)c3)n2)cnc1NC(=O)C1CC1    ≥ 10 µM
Cn1cc(Nc2nccc(-c3ccc(NC(=O)CC#N)c4[nH]ccc34)n2)cn1    0.1 to 1 µM

Alright, here's another compound for you.
Data request: Name the reported IC50 value associated with the compound "Cn1cc(Nc2nccc(-c3ccc(NS(=O)(=O)C4CC4)cc3)n2)cn1"
Data returned: 0.1 to 1 µM
